- Target system: aromatase (microsomes from the human placenta) (Homo sapiens)
- Construct: using microsomes from the human placenta as source of the enzyme; from tissue; host or cells: human placenta microsomes
- Sequence (P11511 whole entry): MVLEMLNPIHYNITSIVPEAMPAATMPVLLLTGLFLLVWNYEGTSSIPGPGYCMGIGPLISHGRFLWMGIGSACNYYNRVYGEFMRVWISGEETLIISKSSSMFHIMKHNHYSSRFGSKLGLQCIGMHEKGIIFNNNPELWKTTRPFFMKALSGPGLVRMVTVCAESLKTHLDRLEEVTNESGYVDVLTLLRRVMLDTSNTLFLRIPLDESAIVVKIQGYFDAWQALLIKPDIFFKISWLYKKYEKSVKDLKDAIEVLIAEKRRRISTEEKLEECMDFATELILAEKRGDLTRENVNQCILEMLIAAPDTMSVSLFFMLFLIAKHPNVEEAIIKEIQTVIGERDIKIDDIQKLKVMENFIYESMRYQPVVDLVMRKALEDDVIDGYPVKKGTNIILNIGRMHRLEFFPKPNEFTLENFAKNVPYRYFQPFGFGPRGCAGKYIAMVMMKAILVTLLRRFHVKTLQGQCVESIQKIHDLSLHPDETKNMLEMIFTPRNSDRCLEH
- Assay notes: Aromatase inhibition in vitro, tritiated water method, human placenta microsomes
- Assay type: biochemical
- Settings: value marked (h); read-out: Activity In vitro IC50(nM), (h)
Reported metric: IC50 (nM)
The reply should be a number in nM, with the unit left off.

// known answers, use as guide
Cn1c(=O)oc2cc(C(c3ccc(C#N)cc3)n3ccnc3)ccc21 (centres unmarked) [PCH27]; 4.62
Cn1c(=O)oc2cc(C(c3ccccc3)n3ccnc3)ccc21 (centres unmarked) [AL22]; 320
Cn1c(=O)oc2cc(C(c3ccncc3)n3ccnc3)ccc21 (centres unmarked) [PCH30]; 38

Query: Which IC50 is reported for this compound? O=c1[nH]c2cc(C(c3ccccc3)n3ccnc3)ccc2o1 (centres unmarked) [PCH124]
Result: 14.9

----------
- System: uterine hypertrophy induced by androstenedione
- Assay notes: Activity in vivo: inhibition of uterine hypertrophy induced by androstenedione
- Parameters: species or system rat (Sprague-Dawley)
- Settings: Rattus norvegicus, 96 h, dose 1000 μg/Kg; immature female rats, androstenedione 30 mg/kg for 4 days; read-out: % inhibition to doses (μg/Kg)
Label Criterion met when inhibition in vivo at 1 mg/kg is at or above 80%; anything below gets Criterion not met.

Worked cases, answers included:
Cn1c(=O)sc2cc(C(c3ccccc3)n3ccnc3)ccc21 (racemic) [(+/−)PCH28]; Criterion not met
O=c1[nH]c2cc(C(c3ccccc3)n3ccnc3)ccc2o1 (stereo not drawn) [PCH124]; Criterion met
Cn1c(=O)oc2cc(C(c3cccc(C#N)c3)n3ccnc3)ccc21 (stereo not drawn) [PC122]; Criterion met
N#Cc1ccc(C(c2ccc3[nH]c(=O)oc3c2)n2ccnc2)cc1 (stereo not drawn) [PCH113]; Criterion met
N#Cc1ccc(C(c2ccc3c(c2)SCC(=O)N3)n2cncn2)cc1 (stereo not drawn) [PCH230]; Criterion not met

--- query ---
Query: inhibition in vivo at 1 mg/kg >= 80% for N#Cc1ccc(C(c2ccc3c(c2)SCC(=O)N3)n2ccnc2)cc1 (stereo not drawn) [PCH229] ?
Result: Criterion met

----------
- Target system: aromatase (e)
- Type: biochemical
- Settings: value marked (e); read-out: Activity In vitro IC50(nM), (e)
Output Fulfilled for records whose IC50 is lower than 30 nM, Not fulfilled for records at or above 30 nM.

Worked cases, answers included:
Cn1c(=O)oc2cc(C(c3cccc(C#N)c3)n3ccnc3)ccc21 (stereo not shown); Fulfilled
Cn1c(=O)oc2ccc(C(c3ccccc3)n3ccnc3)cc21 (stereo not shown); Not fulfilled
Cn1c(=O)oc2cc(C(c3cccnc3)n3ccnc3)ccc21 (stereo not shown); Not fulfilled

Query: Please determine if Cn1c(=O)sc2cc(C(c3ccccc3)n3ccnc3)ccc21 (racemic) [(E1)PCH28] is below 30 nM in terms of IC50.
Result: Fulfilled

Query: Please give the result for Cn1c(=O)oc2cc(C(c3ccc(C#N)cc3)n3ccnc3)ccc21 (stereo not shown) too.
Result: Not fulfilled

Query: Please give the result for Cn1c(=O)sc2cc(C(c3ccccc3)n3ccnc3)ccc21 (racemic) [(+/−)PCH28] too.
Result: Fulfilled

Query: Please give the result for Cn1c(=O)oc2cc(C(c3ccccc3)n3ccnc3)ccc21 (stereo not shown) too.
Result: Not fulfilled
